System: HCT-116 colon
method-summary: NCI-60 one-dose screen, 48 h (100 = growth as untreated, 0 = no growth, -100 = all killed)
conditions-used: 10 µM unless noted
About 83,000 compounds went through this panel and 20% of them were active in at least one assay; those are over-represented in the sample as a whole.
Documented growth across a set of molecules
value-type: growth (%)

INSERT INTO assay_data (molecule, obs_value) VALUES
  ('Cc1ccc(-n2nc(C(C)(C)C)cc2NC(=O)NCc2cc(F)ccc2Oc2ccc3c(cnn3CCO)c2)cc1', 6.75),
  ('CCN1CCN(c2nc(C)cc(N(CCNc3ccnc4cc(Cl)ccc34)Cc3ccc4c(c3)OCO4)n2)CC1', 10.3),
  ('Nc1nc(=S)c2ncn(C3OC(COC(=O)c4ccc(Cl)cc4)C(OC(=O)c4ccc(Cl)cc4)C3OC(=O)c3ccc(Cl)cc3)c2[nH]1 (stereo not drawn)', 76),
  ('COc1ccc(-c2nc(N)ncc2Oc2ccccc2OC)c(O)c1', 15.9),
  ('Cc1nn(-c2ccccc2)c2c1N=c1s/c(=C\c3cn(-c4ccccc4)nc3-c3ccc(Cl)cc3)c(=O)n1C(C)N2 (stereo not drawn)', 75.2),
  ('ClCc1ccc(-c2ccc(Cn3cnc4nc(Cl)nc(Cl)c43)cc2)cc1', -72.4),
  ('Cc1cccc(Cl)c1NC(=O)c1cnc(Nc2cc(N3CCOCC3)cc(N3CCOCC3)c2)s1', 11.5),
  ('CC1(COc2ccc3c(c2)ncn3-c2ccc3cccc(N4CCC(N)CC4)c3n2)COC1', -45.6),
  ('Cc1nc(NC(=O)N2CCC[C@H]2C(N)=O)sc1-c1ccnc(C(C)(C)C(F)(F)F)c1', 26.4),
  ('C/C(=C(/c1ccc(Cl)cc1)c1ccc(OCCN2CCCCCC2)cc1)c1ccccc1', 50),
  ('Cc1nc(-c2cn3c(n2)-c2ccc(-c4cnn(C(C)(C)C(N)=O)c4)cc2OCC3)n(C(C)C)n1', 20.4),
  ('COc1cc2cc(NCc3ccc(Cl)cc3)nc(C)c2cc1OC', 8.8),
  ('COc1ccc(-c2cc3c(oc2=O)-c2ccccc2OC3OC(C)=O)cc1 (stereo not drawn)', 74),
  ('COC(=O)[C@]12CC[C@@H](C)[C@H](C)[C@@H]1C1=CC[C@@H]3[C@@]4(C)C(C=O)=C[C@@](C)(COS(C)(=O)=O)C4=CC[C@@]3(C)[C@]1(C)CC2', -81.2),
  ('Cc1cc(N2CCOCC2)nc(N(CCNc2ccnc3cc(Cl)ccc23)Cc2cccs2)n1', -25.1),
  ('C=CC[n+]1c(/C=C2\Sc3ccccc3N2C)sc(-c2ccccc2)c1-c1ccccc1', 12),
  ('COc1ccc(/C(C)=C(\c2ccc(Cl)cc2)c2ccc(OCCN3CCCCCC3)cc2)cc1', 38.3),
  ('CCN1CCN(CCCN(C[C@H]2Cc3ccccc3CN2)[C@H]2CCCc3cccnc32)CC1', 76.4);
